Catalogue of EC100 readings, one per entry.
target: human BKαβ1 channels (Homo sapiens, UniProt Q12791); construct: expressed in transfected cells; host or cells: CHO cells (G418 and hygromycin selection); experiment: BK current in CHO cells expressing human BKαβ1 (PatchXpress whole-cell patch clamp), EC100; format: cell-based; details: drug concentration causing 100% increase of BK current
Sequence (Q12791 whole entry): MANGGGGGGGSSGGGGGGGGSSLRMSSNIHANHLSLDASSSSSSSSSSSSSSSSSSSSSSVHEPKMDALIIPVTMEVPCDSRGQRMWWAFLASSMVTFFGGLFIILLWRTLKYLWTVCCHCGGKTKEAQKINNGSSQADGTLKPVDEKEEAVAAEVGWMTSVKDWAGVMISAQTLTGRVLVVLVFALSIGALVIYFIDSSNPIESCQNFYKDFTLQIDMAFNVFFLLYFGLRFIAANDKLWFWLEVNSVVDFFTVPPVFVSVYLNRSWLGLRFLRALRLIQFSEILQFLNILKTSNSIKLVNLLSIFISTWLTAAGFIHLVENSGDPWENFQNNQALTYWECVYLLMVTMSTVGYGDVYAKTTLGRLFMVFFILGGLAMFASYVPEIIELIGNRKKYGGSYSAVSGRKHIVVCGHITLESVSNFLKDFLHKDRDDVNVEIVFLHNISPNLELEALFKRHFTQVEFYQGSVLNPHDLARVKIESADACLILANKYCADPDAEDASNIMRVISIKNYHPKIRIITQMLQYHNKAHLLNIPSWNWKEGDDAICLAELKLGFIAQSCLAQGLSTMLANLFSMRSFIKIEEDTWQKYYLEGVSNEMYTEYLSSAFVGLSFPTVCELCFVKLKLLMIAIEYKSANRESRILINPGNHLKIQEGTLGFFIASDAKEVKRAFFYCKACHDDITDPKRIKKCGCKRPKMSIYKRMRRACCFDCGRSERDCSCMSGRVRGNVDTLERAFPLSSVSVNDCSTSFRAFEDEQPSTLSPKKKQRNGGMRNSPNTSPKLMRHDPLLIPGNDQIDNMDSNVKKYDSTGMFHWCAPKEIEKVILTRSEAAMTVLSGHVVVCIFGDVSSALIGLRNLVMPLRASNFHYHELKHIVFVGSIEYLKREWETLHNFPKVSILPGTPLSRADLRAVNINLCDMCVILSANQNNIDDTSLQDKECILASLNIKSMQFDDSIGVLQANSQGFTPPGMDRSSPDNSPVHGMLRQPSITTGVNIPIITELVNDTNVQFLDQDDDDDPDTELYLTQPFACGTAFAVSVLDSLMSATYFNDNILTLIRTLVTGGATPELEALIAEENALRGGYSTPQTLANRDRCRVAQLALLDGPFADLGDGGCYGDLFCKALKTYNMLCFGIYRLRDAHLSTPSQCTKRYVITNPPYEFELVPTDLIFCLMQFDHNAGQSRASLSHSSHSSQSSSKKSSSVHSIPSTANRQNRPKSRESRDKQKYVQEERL
Sequence (Q16558 whole entry partner): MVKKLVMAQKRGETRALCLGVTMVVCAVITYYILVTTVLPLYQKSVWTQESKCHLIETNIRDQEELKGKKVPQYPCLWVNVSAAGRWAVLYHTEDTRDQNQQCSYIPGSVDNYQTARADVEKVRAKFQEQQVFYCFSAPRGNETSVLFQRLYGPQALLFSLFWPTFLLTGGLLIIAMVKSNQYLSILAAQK
# value in µM; strip the unit string

Here are 5 compounds together with their reported answers.
1) CCOc1ncccc1-c1cc(OC2(C(=O)[O-])CC2)nc(-c2ccc(Cl)c(F)c2)n1.[Na+]
0.5
2) COc1ccc(Cl)c(-c2cc(OC3(C(=O)O)CC3)nc(-c3ccc(F)cc3)n2)c1
0.36
3) COC[C@@H]1CCCN1c1cc(OC2(C(=O)[O-])CC2)nc(-c2ccc(C(F)(F)F)cc2)n1.[Na+]
1.28
4) O=C([O-])C1(Oc2cc(N3CCc4ccc(F)cc4C3)nc(-c3ccc(F)cc3)n2)CC1.[Na+]
0.07
5) CCOCc1ccc(-c2cc(OC3(C(=O)O)CC3)nc(-c3ccc(Cl)cc3)n2)c(C)c1
0.17

Input: Consider the compound COCC1CCN(c2cc(OC3(C(=O)[O-])CC3)nc(-c3ccc(Cl)s3)n2)CC1.[Na+] and give its measured EC100.
Output: 2.56

Input: What value of EC100 has been reported for the following compound? COCCCC1CCN(c2nc(-c3ccc(F)cc3)nc(OC3(C(=O)[O-])CC3)c2C)CC1.[Na+]
Output: 0.77
